Assay type: in vivo, human
PROTOCOL_CONDITIONS: human, plasma, oral, 200 mg

{"COMPOUND": "O=C(Nc1nc2cccc(-c3ccc(CN4CCS(=O)(=O)CC4)cc3)n2n1)C1CC1 [Filgotinib]", "Tmax": "1 h"}

---

Assay type: in vivo, human
PROTOCOL_CONDITIONS: human, plasma, oral
PROPERTY_NAME: Tmax (h)

{"RECORD_SMILES": "O=C(Nc1nc2cccc(-c3ccc(CN4CCS(=O)(=O)CC4)cc3)n2n1)C1CC1", "UNITS_SYMBOL": "h", "VALUE": 1.5}

---

Type: in vivo, human
PROTOCOL_CONDITIONS: human, plasma, oral, 100 mg

{"RECORD_SMILES": "O=C(Nc1nc2cccc(-c3ccc(CN4CCS(=O)(=O)CC4)cc3)n2n1)C1CC1", "UNITS_SYMBOL": "ng/mL", "Cmax": 756}
